TEST NAME: DNA intercalators displacing acridine orange, dose response, artefact control for KSHV LANA DNA-binding inhibitor project, biochemical, fluorescence polarization, cherry-picked samples, set 2 (AID 504727)
CONDITION SUMMARY: Acridine orange-DNA displacement; series mostly up to 35 µM
Activity calls are given as the source filed them.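 The calls were made as follows: active = fitted half-maximal concentration AC50 at or below ten times the highest valid tested dose, with signal falling as DNA is displaced (actives reach about 34 µM in these data); inconclusive = flat fit at moderate signal loss, or poor fit quality; inactive = the rest, including signal rising instead of falling.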
Classes used: 1 (active), 0 (inactive)

- COMPOUND: "O=C(NCC1CCCO1)c1cccc(S(=O)(=O)N(Cc2ccccc2)c2ccccc2)c1 (stereo not drawn)"
  ASSIGNED CATEGORY: 0
- COMPOUND: "CCCc1cc(=O)oc2cc(C)cc(OCC(=O)O)c12"
  ASSIGNED CATEGORY: 0
- COMPOUND: "CC(C)c1ccc(CNc2ccc([N+](=O)[O-])cn2)cc1"
  ASSIGNED CATEGORY: 0
- COMPOUND: "CCCCn1nc(CC(=O)O)c2ccccc2c1=O"
  ASSIGNED CATEGORY: 0
- COMPOUND: "CC(C)C(C(=O)O)N1C(=O)/C(=C/C=C/c2ccco2)SC1=S (stereo not drawn)"
  ASSIGNED CATEGORY: 0
- COMPOUND: "CCOc1ccc(/C=C2\\CCCc3c2nc2ccccc2c3C(=O)O)cc1OC"
  ASSIGNED CATEGORY: 1
- COMPOUND: "CCOC(=O)C1=C(COC(=O)c2ccc([N+](=O)[O-])s2)NC(=O)NC1C (stereo not drawn)"
  ASSIGNED CATEGORY: 0
- COMPOUND: "Cc1ccc(NC(=O)CN2C(=O)N/C(=C/c3cc(C)n(-c4ccc(C(=O)O)cc4)c3C)C2=O)cc1"
  ASSIGNED CATEGORY: 0
- COMPOUND: "CNC(=S)Nc1cccc(C(=O)OC)c1"
  ASSIGNED CATEGORY: 0
- COMPOUND: "Cc1cccc(NC(=O)CN2C(=O)NC(C)(c3ccc4ccccc4c3)C2=O)n1 (stereo not drawn)"
  ASSIGNED CATEGORY: 0
- COMPOUND: "COc1ccc(Br)cc1CNC(=O)CCCc1cn(C)c2ccccc12"
  ASSIGNED CATEGORY: 0
- COMPOUND: "CC(=O)NC(C(=O)c1ccccc1)C(=O)c1ccccc1"
  ASSIGNED CATEGORY: 0
- COMPOUND: "CCc1noc(C)c1C(=O)N1CCCC(N2CCN(c3ccc(F)cc3)CC2)C1 (stereo not drawn)"
  ASSIGNED CATEGORY: 0
- COMPOUND: "Cc1c(C)n(Cc2ccccc2)c2ncnc(Cl)c12"
  ASSIGNED CATEGORY: 0
- COMPOUND: "CCCCN(C(=O)C(C)Oc1ccc(Br)cc1)c1c(N)n(CC(C)C)c(=O)[nH]c1=O (stereo not drawn)"
  ASSIGNED CATEGORY: 0
- COMPOUND: "CC(C)[C@H](NC(=O)c1ccccc1F)C(=O)NC1CCCCCCC1"
  ASSIGNED CATEGORY: 0
- COMPOUND: "CCn1c(SCc2nc3sc(C(=O)O)c(C)c3c(=O)[nH]2)nc2ccccc21"
  ASSIGNED CATEGORY: 0
- COMPOUND: "O=C(CN1C(=O)/C(=C/c2ccco2)SC1=S)Nc1ccc(C(=O)O)c(O)c1"
  ASSIGNED CATEGORY: 0
- COMPOUND: "CCc1nnc(NC(=O)c2cccc(S(=O)(=O)N(C)c3ccccc3)c2)s1"
  ASSIGNED CATEGORY: 0
- COMPOUND: "Cc1ccc(CSc2ncnc3onc(C)c23)cc1"
  ASSIGNED CATEGORY: 0
- COMPOUND: "CCCc1cc(C(=O)Nc2ccc(C(=O)c3ccc(C)cc3)cc2)n(C)n1"
  ASSIGNED CATEGORY: 0
- COMPOUND: "COc1ccc(CCNC(=O)CNC(=O)Cn2ccc3ccccc3c2=O)cc1OC"
  ASSIGNED CATEGORY: 0
- COMPOUND: "S=c1c2c(nc3nc[nH]n13)CCC2"
  ASSIGNED CATEGORY: 0
